Target: Udorn His-GST-ED WT (Influenza A virus A/Udorn/307/1972, UniProt P03495 86-237)
Sequence (P03495 86-237): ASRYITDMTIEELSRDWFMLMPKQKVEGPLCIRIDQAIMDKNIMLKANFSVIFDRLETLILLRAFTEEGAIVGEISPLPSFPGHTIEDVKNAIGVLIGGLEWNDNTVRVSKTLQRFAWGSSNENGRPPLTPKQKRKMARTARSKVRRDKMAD
Assay: fluorescence polarization; […], pH 8.0, 1 h at room temperature; […]
Details: protein: recombinant; tags: N-term 10xHis-GST; label: 5'-FAM (FITC) on both strands; blunt
measured-attribute: Kd (nM)
Write down the numeric answer in nM and omit the unit.

// recorded Kd for FAM-dsRNA 16 bp (dsRNA) RNA 1: CCAUCCUCUACAGGCG RNA 2: CGCCUGUAGAGGAUGG : 180
